Entries and their MIC values follow.
# System: C. albicans ATCC 90028
# measurement_notes: Antifungal broth microdilution (EUCAST), standard strain
# Format: cell-based
# settings: Candida albicans, ATCC90028; C. albicans ATCC 90028; 24 h, ≥50% growth inhibition; read-out: MIC

Study these solved cases before continuing.
| compound | target_desc | recorded_endpoint | val |
| --- | --- | --- | --- |
| O=C(NCc1ccccc1)OC(Cc1ccccc1)Cn1ccnc1 (stereo not drawn) [Compound 6] | C. albicans ATCC 90028 | MIC | > 64 µg/mL |
| O=C(OC(Cc1ccccc1)Cn1ccnc1)c1cccc(C(=O)c2ccccc2)c1 (stereo not drawn) [Compound 4] | C. albicans ATCC 90028 | MIC | > 64 µg/mL |

Now let's try a different one.
Query :: Return reported MIC; argument: Cc1ccc(S(=O)(=O)N2CCCC(Cn3cncn3)C2)cc1[N+](=O)[O-] (stereo not drawn) [Compound 17]
Result :: > 64 µg/mL
